Origin of measurements: patent US12331054B2

Please respond with reported pIC50 for every item in the list.
# system: Recombinant human EIF2AK3 (PERK) catalytic domain (amino acids 536-1116) (Homo sapiens (Human))
# Sequence (Q9NZJ5 536-1116): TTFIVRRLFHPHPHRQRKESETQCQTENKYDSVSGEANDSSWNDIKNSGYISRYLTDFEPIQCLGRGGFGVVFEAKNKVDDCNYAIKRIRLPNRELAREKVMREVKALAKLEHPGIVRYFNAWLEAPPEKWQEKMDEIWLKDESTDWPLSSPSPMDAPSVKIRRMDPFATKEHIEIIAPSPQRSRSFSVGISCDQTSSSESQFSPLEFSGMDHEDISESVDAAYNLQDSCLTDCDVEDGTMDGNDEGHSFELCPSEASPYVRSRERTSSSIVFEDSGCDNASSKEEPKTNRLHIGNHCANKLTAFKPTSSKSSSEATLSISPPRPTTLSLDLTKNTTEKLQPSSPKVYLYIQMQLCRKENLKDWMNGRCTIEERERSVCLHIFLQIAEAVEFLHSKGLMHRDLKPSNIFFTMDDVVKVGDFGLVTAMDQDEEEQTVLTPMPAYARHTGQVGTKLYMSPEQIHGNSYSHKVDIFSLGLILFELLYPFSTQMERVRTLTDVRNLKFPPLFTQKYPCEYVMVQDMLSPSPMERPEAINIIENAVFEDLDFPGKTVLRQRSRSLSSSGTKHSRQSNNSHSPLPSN
# experiment description: PERK In Vitro Activity Assay (isolated), TR-FRET kinase assay
# condition description: isolated PERK enzyme, 1.5 μM ATP, read-out: Biochemical IC50
pIC50: −log10 of the molar value.

Your task in this section: give pIC50 for each listed record.
1. [2H]C([2H])([2H])c1nc(-c2ccc(NC(=O)C(O)c3cc(F)cc(C(F)(F)F)c3)cc2F)c2c(N)ncc(Cl)n12 (stereo not drawn) [Example 115]
2. [2H]C([2H])([2H])c1nc(-c2ccc(NC(=O)C(O)c3cc(F)cc(C(F)(F)F)c3)cc2C)c2c(N)ncc(C)n12 (stereo not drawn) [Example 54]
3. [2H]C([2H])([2H])c1nc(-c2ccc(NC(=O)C(O)c3cc(F)cc(C(F)(F)F)c3)cc2C)c2c(N)nc(C)cn12 (stereo not drawn) [Example 52]

1. 7.60 to 9.00
2. 7.60 to 9.00
3. 7.60 to 9.00

----------
# system: Recombinant human EIF2AK3 (PERK) catalytic domain (amino acids 536-1116) (Homo sapiens (Human))
# experiment description: PERK In Vitro Activity Assay (isolated), TR-FRET kinase assay
# condition description: isolated PERK enzyme, 1.5 μM ATP, read-out: Biochemical IC50
pIC50: −log10 of the molar value.
Please respond with reported pIC50 for every item in the list.

Solved entries (count: 4):
If you can, please state the reported pIC50 value of [2H]C([2H])([2H])c1nc(-c2ccc(NC(=O)C(O)c3cccc(C(F)(F)F)c3)cc2C)c2c(N)ncc(C(F)(F)F)n12 (centres unmarked) [Example 21] .
7.00 to 7.29

Consider next the compound Cc1c(-c2nc(C)n3c(C)cnc(N)c23)ccc(NC(=O)C(O)c2cccc(F)c2)c1F (centres unmarked) [Example 169] in the same way.
7.60 to 9.00

Consider next the compound [2H]C([2H])([2H])c1nc(-c2cnc(NC(=O)C(O)c3cccc(C(F)(F)F)c3)cc2C)c2c(N)nc(C)cn12 (centres unmarked) [Example 182] in the same way.
7.60 to 9.00

Consider next the compound [2H]C([2H])([2H])c1nc(-c2ccc(NC(=O)C(O)c3cc(F)cc(C(F)(F)F)c3)cc2C)c2c(N)ncc(C)n12 (centres unmarked) [Example 55] in the same way.
7.60 to 9.00

Now for the compound whose pIC50 we want.
If you can, please state the reported pIC50 value of [2H]C([2H])([2H])c1nc(-c2ccc(NC(=O)C(O)c3cc(F)cc(F)c3)cc2F)c2c(N)nc(C)cn12 (centres unmarked) [Example 102] .
7.60 to 9.00

----------
# Test system: eIF2α in HEK293-EGFP-eIF2α cells
# experiment description: PERK Cellular Assay (HEK293-EGFP-eIF2α cells, tunicamycin-induced ER stress, TR-FRET)
# Format: cell-based
# condition description: tunicamycin 2 hours
pIC50: −log10 of the molar value.
experimental endpoint: pIC50

Solved entries (count: 2):
If you can, please state the reported pIC50 value of [2H]C([2H])([2H])c1nc(-c2ccc(NC(=O)C(O)c3cc(F)cc(C(F)(F)F)c3)cc2F)c2c(N)nc(C)cn12 (stereo not shown) [Example 116] .
7.60 to 9.00

Consider next the compound [2H]C([2H])([2H])c1nc(-c2ccc(NC(=O)C(O)c3cccc(Cl)c3)cc2C)c2c(N)ncc(C)n12 (stereo not shown) [Example 37] in the same way.
7.00 to 7.29

Your task in this section: give pIC50 for each listed record.
1. [2H]C([2H])([2H])c1nc(-c2ccc(NC(=O)C(O)c3cc(F)cc(F)c3)cc2C)c2c(N)nc(C)cn12 (stereo not shown) [Example 44]
2. [2H]C([2H])([2H])c1nc(-c2cnc(NC(=O)C(O)c3cccc(C(F)(F)F)c3)cc2C)c2c(N)nc(C)cn12 (stereo not shown) [Example 183]
3. [2H]C([2H])([2H])c1nc(-c2ccc(NC(=O)C(O)c3cc(F)cc(F)c3)cc2F)c2c(N)nc(C)cn12 (stereo not shown) [Example 102]
4. Cc1cnc(N)c2c(-c3ccc(NC(=O)C(O)c4cccc(C(F)(F)F)c4)cc3F)nc(C)n12 (stereo not shown) [Example 93]

6.60 to 7.00
5.52 to 5.70
7.60 to 9.00
7.00 to 7.29
